biological target: ADR- Alpha 1A (Homo sapiens, UniProt P35348)
Sequence (P35348 whole entry): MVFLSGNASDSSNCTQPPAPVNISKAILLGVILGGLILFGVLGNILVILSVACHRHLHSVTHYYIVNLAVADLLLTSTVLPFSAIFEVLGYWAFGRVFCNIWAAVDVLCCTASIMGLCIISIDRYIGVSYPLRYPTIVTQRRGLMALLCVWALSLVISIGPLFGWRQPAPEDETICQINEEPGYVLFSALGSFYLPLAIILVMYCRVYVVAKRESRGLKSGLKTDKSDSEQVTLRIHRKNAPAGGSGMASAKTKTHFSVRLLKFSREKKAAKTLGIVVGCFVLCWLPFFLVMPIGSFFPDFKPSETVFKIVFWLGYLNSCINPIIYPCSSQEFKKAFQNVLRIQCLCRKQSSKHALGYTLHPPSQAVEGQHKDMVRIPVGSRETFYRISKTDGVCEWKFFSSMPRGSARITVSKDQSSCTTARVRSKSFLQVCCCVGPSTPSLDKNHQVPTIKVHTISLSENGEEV
pKi: −log10 of the molar value.

Compound | pKi
COc1ccccc1OCCNC[C@H](O)COc1ccc(O)cc1.COc1ccccc1OCCNC[C@H](O)COc1ccc(O)cc1.O=C(O)/C=C/C(=O)O [STD-101-D1] | 7.77
